From: ChEMBL document CHEMBL4028802

- Species: Homo sapiens
- assay.procedure: Liver toxicity in human assessed as induction of drug-induced liver injury by measuring severity class index
Task for the reader: assign each of the following compounds its reported DILI_severity_class.
Lab note: record just the number, no unit beside it.

Input CCCCCCCCCC(=O)O[C@H]1CC[C@H]2[C@@H]3CCC4=CC(=O)CC[C@@H]4[C@H]3CC[C@]12C [NANDROLONE DECANOATE] . Output DILI_severity_class: 7

Input C[C@@H](O)[C@H]1C(=O)N2C(C(=O)O)=C(S[C@@H]3CN[C@H](C(=O)Nc4cccc(C(=O)O)c4)C3)[C@H](C)[C@H]12 . Output DILI_severity_class: 3

Input O=C1[C@H](CC[C@H](O)c2ccc(F)cc2)[C@@H](c2ccc(O)cc2)N1c1ccc(F)cc1 . Output DILI_severity_class: 3

Input Cc1ccnc2c1NC(=O)c1cccnc1N2C1CC1 . Output DILI_severity_class: 8

Input CCC[C@@H]1C[C@@H](C(=O)N[C@@H]([C@H]2O[C@H](SC)[C@H](OP(=O)(O)O)[C@@H](O)[C@H]2O)[C@H](C)Cl)N(C)C1 [CLINDAMYCIN PHOSPHATE] . Output DILI_severity_class: 3

Input OCCOCCN1CCN(C2=Nc3ccccc3Sc3ccccc32)CC1 . Output DILI_severity_class: 3

Input O=C(O)CCCc1ccc(N(CCCl)CCCl)cc1 . Output DILI_severity_class: 3

Input NCCc1ccc(O)c(O)c1 . Output DILI_severity_class: 0

Input O=c1[nH]c(=O)n([C@@H]2O[C@H](CO)[C@@H](O)[C@@H]2F)cc1I . Output DILI_severity_class: 8

Input Nc1nc(Cl)nc2c1ncn2[C@@H]1O[C@H](CO)[C@@H](O)[C@@H]1F . Output DILI_severity_class: 8

Input O=C(O)[C@@H](S)[C@@H](S)C(=O)O . Output DILI_severity_class: 2

Input C=CCC1(C(C)CCC)C(=O)NC(=O)NC1=O (stereo not drawn) . Output DILI_severity_class: 3

Input O=C(N[C@H](CO)[C@H](O)c1ccc([N+](=O)[O-])cc1)C(Cl)Cl . Output DILI_severity_class: 0

Input CCOc1ccc2ccccc2c1C(=O)N[C@@H]1C(=O)N2[C@@H]1SC(C)(C)[C@@H]2C(=O)O . Output DILI_severity_class: 3

Input CN(C)CCc1c[nH]c2ccc(Cn3cncn3)cc12 . Output DILI_severity_class: 0

Input CC(C)(C)NCC(O)c1ccc(O)c(CO)c1 (stereo not drawn) . Output DILI_severity_class: 0

Input CC(C)[C@H](N)C(=O)OCCOCn1cnc2c(=O)[nH]c(N)nc21 . Output DILI_severity_class: 3

Input COc1cccc(C2(O)CCCCC2CN(C)C)c1 (stereo not drawn) . Output DILI_severity_class: 7

----------
- Organism: Homo sapiens
- assay.procedure: Liver toxicity in human assessed as induction of drug-induced liver injury by measuring severity class index
Task for the reader: assign each of the following compounds its reported DILI_severity_class.
Lab note: record just the number, no unit beside it.

Input NC(=O)C[S@@+]([O-])C(c1ccccc1)c1ccccc1 . Output DILI_severity_class: 3

Input Nc1ncn([C@@H]2O[C@H](CO)[C@@H](O)[C@H]2O)c(=O)n1 . Output DILI_severity_class: 8

Input COCCc1ccc(OCC(O)CNC(C)C)cc1.COCCc1ccc(OCC(O)CNC(C)C)cc1.O=C(O)CCC(=O)O (stereo not given) [METOPROLOL SUCCINATE] . Output DILI_severity_class: 3

Input C#C[C@]1(O)CC[C@H]2[C@@H]3CCC4=CC(=O)CC[C@@H]4[C@H]3C(=C)C[C@@]21CC . Output DILI_severity_class: 5

Input O=C(O)P(=O)(O)O . Output DILI_severity_class: 3

----------
Task for the reader: assign each of the following compounds its reported DILI_severity_class.
- Species on record: Homo sapiens
- assay.procedure: Liver toxicity in human assessed as induction of drug-induced liver injury by measuring severity class index
Lab note: record just the number, no unit beside it.

Input CCCCCCCN(CC)CCCC(O)c1ccc(NS(C)(=O)=O)cc1 (stereo unspecified) [IBUTILIDE] . Output DILI_severity_class: 0

Input CN1CCCC(CN2c3ccccc3Sc3ccccc32)C1 (stereo unspecified) . Output DILI_severity_class: 8

Input Cc1ccc(O)c([C@H](CCN(C(C)C)C(C)C)c2ccccc2)c1 . Output DILI_severity_class: 0

Input NC(=O)N1c2ccccc2C=Cc2ccccc21 [CARBAMAZEPINE] . Output DILI_severity_class: 7

Input CC[N+](C)(C)c1cccc(O)c1 . Output DILI_severity_class: 0

Input NCCCCCC(=O)O . Output DILI_severity_class: 0

----------
- Species on record: Homo sapiens
- assay.procedure: Liver toxicity in human assessed as induction of drug-induced liver injury by measuring verified drug-induced liver injury concern status
measurement.kind: DILI_Concern

Answered examples (5):
                         compound_structure              data_value
0  CC(C)(Oc1ccc(C(=O)c2ccc(Cl)cc2)cc1)C(=O)O  Ambiguous-Dili-Concern
1  Nc1ncn([C@H]2C[C@H](O)[C@@H](CO)O2)c(=O)n1  Ambiguous-Dili-Concern
2  CCOC(=O)[C@H](CCc1ccccc1)N[C@@H](C)C(=O)N1Cc2cc(OC)c(OC)cc2C[C@H]1C(=O)O  Ambiguous-Dili-Concern
3            CCC1(c2ccccc2)C(=O)NC(=O)NC1=O       Less-Dili-Concern
4  O=c1n(CCCN2CCN(c3cccc(Cl)c3)CC2)nc2ccccn12       Less-Dili-Concern

Input CCC[C@@H]1C[C@@H](C(=O)N[C@@H]([C@H]2O[C@H](SC)[C@H](O)[C@@H](O)[C@H]2O)[C@@H](C)O)N(C)C1 . Output DILI_Concern: Ambiguous-Dili-Concern

----------
Task for the reader: assign each of the following compounds its reported DILI_severity_class.
- Species on record: Homo sapiens
- assay.procedure: Liver toxicity in human assessed as induction of drug-induced liver injury by measuring severity class index
Lab note: record just the number, no unit beside it.

Input N[C@@H](CC(=O)N1CCn2c(nnc2C(F)(F)F)C1)Cc1cc(F)c(F)cc1F [SITAGLIPTIN] . Output DILI_severity_class: 4

Input Cc1nnc(SCC2=C(C(=O)O)N3C(=O)[C@@H](NC(=O)Cn4cnnn4)[C@H]3SC2)s1 [CEFAZOLIN] . Output DILI_severity_class: 3

Input COc1ccc(C[C@@H]2c3cc(OC)c(OC)cc3CC[N@+]2(C)CCC(=O)OCCCCCOC(=O)CC[N@@+]2(C)CCc3cc(OC)c(OC)cc3[C@H]2Cc2ccc(OC)c(OC)c2)cc1OC.O=S(=O)([O-])c1ccccc1.O=S(=O)([O-])c1ccccc1 [CISATRACURIUM BESYLATE] . Output DILI_severity_class: 0

Input Cn1c(=O)c2[nH]cnc2n(C)c1=O.O [THEOPHYLLINE] . Output DILI_severity_class: 0

Input Nc1nc2c(c(=O)[nH]1)N(C=O)C(CNc1ccc(C(=O)N[C@@H](CCC(=O)O)C(=O)O)cc1)CN2 (stereo partly drawn) [LEUCOVORIN] . Output DILI_severity_class: 0

Input CN1CCC(=C2c3ccccc3C=Cc3ccccc32)CC1 [CYPROHEPTADINE] . Output DILI_severity_class: 7

Input CN(C)CCc1c[nH]c2ccc(C[C@H]3COC(=O)N3)cc12 [ZOLMITRIPTAN] . Output DILI_severity_class: 3

Input C[C@@H](O)[C@@H]1NC(=O)[C@H](CCCCN)NC(=O)[C@@H](Cc2c[nH]c3ccccc23)NC(=O)[C@H](Cc2ccccc2)NC(=O)[C@@H](NC(=O)[C@H](N)Cc2ccccc2)CSSC[C@@H](C(=O)N[C@H](CO)[C@@H](C)O)NC1=O [OCTREOTIDE] . Output DILI_severity_class: 2

Input COc1nc(N)nc2c1ncn2[C@@H]1O[C@H](CO)[C@@H](O)[C@@H]1O [NELARABINE] . Output DILI_severity_class: 4

Input CN1[C@@H]2C[C@@H](OC(=O)[C@H](CO)c3ccccc3)C[C@H]1[C@@H]1O[C@@H]12 [SCOPOLAMINE] . Output DILI_severity_class: 0

Input CC(C)(C)NC[C@H](O)COc1ccccc1C1CCCC1 [PENBUTOLOL] . Output DILI_severity_class: 0

Input CCCC(C)C1(CC)C(=O)NC(=O)NC1=O (stereo not drawn) [PENTOBARBITAL] . Output DILI_severity_class: 3

Input CCCC(=O)OCOC(=O)C1=C(C)NC(C)=C(C(=O)OC)C1c1cccc(Cl)c1Cl (stereo not drawn) [CLEVIDIPINE] . Output DILI_severity_class: 0

Input C[C@@H](O[C@H]1OCCN(Cc2nc(O)n(P(=O)(O)O)n2)[C@H]1c1ccc(F)cc1)c1cc(C(F)(F)F)cc(C(F)(F)F)c1 [FOSAPREPITANT] . Output DILI_severity_class: 3

Input COc1c(N2C[C@@H]3CCCN[C@@H]3C2)c(F)cc2c(=O)c(C(=O)O)cn(C3CC3)c12 [MOXIFLOXACIN] . Output DILI_severity_class: 8

Input OCCN1CCN(CCCN2c3ccccc3Sc3ccc(Cl)cc32)CC1 [PERPHENAZINE] . Output DILI_severity_class: 3

Input CCC[C@@H]1C[C@@H](C(=O)N[C@@H]([C@H]2O[C@H](SC)[C@H](O)[C@@H](O)[C@H]2O)[C@H](C)Cl)N(C)C1 [CLINDAMYCIN] . Output DILI_severity_class: 3

Input Nc1ccc(S(=O)(=O)c2ccc(N)cc2)cc1 [DAPSONE] . Output DILI_severity_class: 3

Input O=[N+]([O-])O[C@@H]1CO[C@H]2[C@@H]1OC[C@H]2O . Output DILI_severity_class: 3

Input CNS(=O)(=O)Cc1ccc2[nH]cc(CCN(C)C)c2c1 . Output DILI_severity_class: 3

Input CCOC(=O)C(C)(C)Oc1ccc(Cl)cc1 [CLOFIBRATE] . Output DILI_severity_class: 3

Input COc1cc(C(C)=O)ccc1OCCCN1CCC(c2noc3cc(F)ccc23)CC1 [ILOPERIDONE] . Output DILI_severity_class: 2

Input O[C@@H](c1cc(C(F)(F)F)nc2c(C(F)(F)F)cccc12)[C@H]1CCCCN1 [(S,R)-MEFLOQUINE] . Output DILI_severity_class: 7

Input CO[C@@]1(NC(=O)Cc2cccs2)C(=O)N2C(C(=O)O)=C(COC(N)=O)CS[C@@H]21 [CEFOXITIN] . Output DILI_severity_class: 3

Input O=C(O[C@H]1C[C@H]2CC[C@@H](C1)[N+]21CCCC1)C(O)(c1ccccc1)c1ccccc1.[Cl-] [TROSPIUM CHLORIDE] . Output DILI_severity_class: 0

Input O=C(NCC1CCCCN1)c1cc(OCC(F)(F)F)ccc1OCC(F)(F)F (stereo not drawn) [FLECAINIDE] . Output DILI_severity_class: 7

Input CN[C@H](CC(C)C)C(=O)N[C@H]1C(=O)N[C@@H](CC(N)=O)C(=O)N[C@H]2C(=O)N[C@H]3C(=O)N[C@H](C(=O)N[C@H](C(=O)O)c4cc(O)cc(O)c4-c4cc3ccc4O)[C@H](O)c3ccc(c(Cl)c3)Oc3cc2cc(c3O[C@@H]2O[C@H](CO)[C@@H](O)[C@H](O)[C@H]2O[C@H]2C[C@](C)(N)[C@H](O)[C@H](C)O2)Oc2ccc(cc2Cl)[C@H]1O [VANCOMYCIN] . Output DILI_severity_class: 0

Input C[C@@H](O[C@H]1OCCN(Cc2n[nH]c(=O)[nH]2)[C@H]1c1ccc(F)cc1)c1cc(C(F)(F)F)cc(C(F)(F)F)c1 [APREPITANT] . Output DILI_severity_class: 3
